Target: T1, human tissue factor pathway inhibitor (TFPI) (human, UniProt P10646 29-304, limits assumed); further: test concentration or dose not given here
T1 sequence (looked up): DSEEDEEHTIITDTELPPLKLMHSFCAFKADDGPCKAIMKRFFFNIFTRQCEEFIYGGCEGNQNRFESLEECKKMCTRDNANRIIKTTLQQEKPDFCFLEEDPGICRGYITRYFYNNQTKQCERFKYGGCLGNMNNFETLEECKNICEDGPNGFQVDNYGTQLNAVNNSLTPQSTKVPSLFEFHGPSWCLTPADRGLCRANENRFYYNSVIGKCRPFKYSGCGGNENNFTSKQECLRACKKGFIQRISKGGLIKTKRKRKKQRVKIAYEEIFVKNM
Test: cell-based or functional assay
Listing: dPT in hemoA plasma of selected binders
Could you give me the number in s? Just the number is fine.

These solved cases illustrate the format of a correct answer.
TP-3B4 Fab (Fab, V domains shown, Human Fab from HuCal Gold, expressed in E. coli TG1) VH: QVQLQQSGPGLVKPSQTLSLTCAISGDSVSSNGAAWGWIRQSPGRGLEWLGHIYYRSKWYNSYAVSVKSRITINPDTSKNQFSLQLNSVTPEDTAVYYCARWGGIHDGDIYFDYWGQGTLVTVSS VL: DIQMTQSPSSLSASVGDRVTITCRASQNISNYLNWYQQKPGKAPKLLIYGTSSLQSGVPSRFSGSGSGTDFTLTISSLQPEDFAVYYCQQYGNNPTTFGQGTKVEIKR : 69.1
TP-2A2 Fab (Fab, V domains shown, Human Fab from HuCal Gold, expressed in E. coli TG1) VH: QVQLVESGGGLVQPGGSLRLSCAASGFTFSNNAMNWVRQAPGKGLEWVSTISYDGSNTYYADSVKGRFTISRDNSKNTLYLQMNSLRAEDTAVYYCARQAGGWTYSYTDVWGQGTLVTVSS VL: DIELTQPPSVSVAPGQTARISCSGDNIRTYYVHWYQQKPGQAPVVVIYGDSKRPSGIPERFSGSNSGNTATLTISGTQAEDEADYYCQSYDSEADSEVFGGGTKLTVLG : 70.9

We now examine a further binder.
Problem: Give the measured dPT in hemoA plasma for TP-2G9 Fab (Fab, V domains shown, Human Fab from HuCal Gold, expressed in E. coli TG1) VH: QVQLVESGGGLVQPGGSLRLSCAASGFTFNSYAMTWVRQAPGKGLEWVSAIKSDGSNTYYADSVKGRFTISRDNSKNTLYLQMNSLRAEDTAVYYCARNDSGWFDVWGQGTLVTVSS VL: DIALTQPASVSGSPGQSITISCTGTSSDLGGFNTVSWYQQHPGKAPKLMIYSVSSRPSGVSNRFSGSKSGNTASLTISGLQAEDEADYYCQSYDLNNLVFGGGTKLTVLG
Solution: 82.7

Origin of the recorded values: patent US20120269817A1
